Assignment: determine reported log10 koff for the given binders.
Biological target: T1, human IL-2Rβ (human, UniProt P14784 27-240, limits assumed)
T1 construct: Recombinant protein, coated (ELISA) or immobilised on CM5 (SPR); also called hu IL-2R; interleukin 2 receptor β-chain
T1 sequence: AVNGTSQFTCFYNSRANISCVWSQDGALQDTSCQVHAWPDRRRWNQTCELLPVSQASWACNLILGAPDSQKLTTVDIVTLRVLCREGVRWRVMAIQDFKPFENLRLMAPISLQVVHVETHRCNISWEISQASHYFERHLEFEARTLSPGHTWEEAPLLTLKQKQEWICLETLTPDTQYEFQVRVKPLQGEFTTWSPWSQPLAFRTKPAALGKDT
Experiment: SPR (Biacore), P.E. off-rate ranking
Each number you see is log10 of koff, and the unit inside the log is s⁻¹.

Query string: Given FJ1427_P035MP03B09 (VHH, soluble VHH in periplasmic extract; also called clone nr) VHH: QVQLVESGGGLVQAGGSLRLSCVVSGDVFVRYTMAWFRQAPGKEREFVTSITDSGRTTEYVDSVKGRFTVSRDNAKNTVYLQMNNLKPEDTAVYYCAANTDYFRIRSLDANTWGQGTQVTVSS , state its recorded log10 koff.
Result string: -2.69

Query string: What does the record list as log10 koff for FJ1427_P035MP03F02 (VHH, soluble VHH in periplasmic extract; also called clone nr) VHH: QVQLVESGGGLVQPGGSLRLSCAASGFTFSNYAMSWVRQAPGKGLEWVSSITGAGRGTYYADSVKGRFTISRDNDKNTLYLQMNSLKPEDTAVYYCAKYDSSTYYPPTPARGIADRGQGIQVTVSS ?
Result string: -2.72

Query string: Form field: reported log10 koff of FJ1427_P035MP03D10 (VHH, soluble VHH in periplasmic extract; also called clone nr) VHH: QVQLQESGGGLVQAGDSLRLSCVVSGRDFSGYTMGWFRQPPGKEREFVALITWSTGRVHYTDSVEGRFTISRDSAKNTVYLQMNSLKPEDTAVYTCAAGRVGYTTNLHSYDYSGQGTQVIVSA
Result string: -2.92

Query string: Look at this binder and give its reported log10 koff. FJ1427 P035MP03F07 (VHH, soluble VHH in periplasmic extract; also called clone nr) VHH: QVQLVESGGGLVQAGGSLRLSCAASGRTFSSYVMGWFRQAPGKEREFVVAITGTRRTTDWPDSVKGRFTISRDNAQNTVYLDMNSLKPEDTAVYYCASARGLPVPPLGDIIHWGEGTLVTVSS
Result string: -2.90

Query string: Which log10 koff is reported for this binder? FJ1427 P035MP03D04 (VHH, soluble VHH in periplasmic extract; also called clone nr; 220) VHH: QVQLVESGGGLVQPGGSLRLSCAASGFTFSNYAMSWVRQAPGKELEWVSSITSAGRGTHYADTVKGRFTISRDNDENTLYLQMNSLEPEDTAVYYCAKYSSATYYPPTPAQGRDYRGQGTQVTVSS
Result string: -2.80

Query string: Returns the measured log10 koff for the input binder. Input: FJ1427_P035MP03F01 (VHH, soluble VHH in periplasmic extract; also called clone nr) VHH: QVQLVESGGGLVQVGGSLRVSCAASGRTSGDRNMGWFRQAPGKEREFVGIITWSSGSTVYADSVKGRFTISRDNAKNTVYLDMSSLKPEDTAVYYCAADYYPYSGSWNIMDYWGKGTLVTVSS
Result string: -2.35

Query string: log10 koff lookup needed for FJ1427_P035MP03G09 (VHH, soluble VHH in periplasmic extract; also called clone nr) VHH: QVQLVESGGGLVQAGGSLRLSCVVSGDVFVRYTMAWFRQAPGKEREFVAVVTDSGRTTEYVDSVKGRFTVSRDNAKNTVYLQMNNLKPEDTAVYYCAANTDYFQIRSVDNNAWGQGTQVTVSS , thanks.
Result string: -3.15

Query string: log10 koff for FJ1427 P035MP03C12 (VHH, soluble VHH in periplasmic extract; also called clone nr) VHH: QVQLVESGGGLVQAGGSLRLSCAASGRAFSTYSMGWFRQTPGKEREFVAIISESGGIIDYGDSVKGRFTLSRDNAKNTVSLQMSSLQPEDTAVYYCAAARDWFARTAYQYDYWGQGTQVTVSA ?
Result string: -2.85

Query string: Please give the measured log10 koff for this binder: FJ1427 P035MP03D11 (VHH, soluble VHH in periplasmic extract; also called clone nr) VHH: QVQLVESGGGLVQAGGSLRLSCAASGRTFSTTDVGWFRQAPGKEREFVAAITWSSHSTLYADSVEGRFTVTRENAKNTVYLQMNSLKPEDTAVYYCAAVRRGWAVVRTEGAYDFWGQGTQVTVSA
Result string: -2.99

Query string: Would you kindly share the measured log10 koff for FJ1427 P035MP03D09 (VHH, soluble VHH in periplasmic extract; also called clone nr; 260) VHH: QVQLVESGGGLVQAGGSLRLSCAVSGDVFVRYTMAWFRQAPGKEREFVASVTDSGRTTDYVHSVKGRFTVSRDNAKNTVYLQMNNLKPEDTAVYYCAANTDYFQIKSLDANTWGQGTQVTVSS ?
Result string: -2.79

Query string: // lookup log10 koff for FJ1427_P035MP03A07 (VHH, soluble VHH in periplasmic extract; also called clone nr) VHH: QVQLVESGGGLVEAGGSLRLSCAASGRAFNNFPMGWFRQAPGKEREFVAAITWISGSTLYADSVKGRFTISRDKSKNTVYLQMSGLKPEDTALYYCAAALKTITRGQHDYTYWGQGTQVTVSS
Result string: -3.55

Query string: GET /values?readout=log10 koff&item= FJ1427 P035MP03C08 (VHH, soluble VHH in periplasmic extract; also called clone nr) VHH: EVQLVESGGGLVQAGGSLRLACALSGDVFVRYTMAWFRQAPGKEREFVASVTDSGRTTDYVASVQGRFTVSRDNNKNTVYLQMNSLKPEDTAVYYCAANTDYFQIRSLDRNTWGQGTQVTVSS
Result string: -3.12

Query string: Which log10 koff value is on record for FJ1427_P035MP03E11 (VHH, soluble VHH in periplasmic extract; also called clone nr) VHH: EVQLVESGGGLVQAGGSLRLSCVVSGDVFVRYTMAWFRQAPGKEREFVAAVTDSGRTTEYVDSVKGRFTVSRDNAKNTVYLQMNNLEPEDTAVYYCAANTDYFQIRSVDNNAWGQGTQVTVSS ?
Result string: -2.83

Query string: Any idea what its log10 koff is? The binder is FJ1427_P035MP03G11 (VHH, soluble VHH in periplasmic extract; also called clone nr) VHH: EVQLVESGGGLVQAGGSLRLSCAASGDVFVRYTMAWFRQAPGKEREFVASVTDSGRTTDYVDSVKGRFTVSRDNAKNTVYLQMNNLKPEDTAVYYCAANTDYFQIRSLEFNTWGQGTQVTVSS
Result string: -2.91

Query string: What does the data say about its log10 koff? Entry: FJ1427_P035MP03G01 (VHH, soluble VHH in periplasmic extract; also called clone nr) VHH: EVQLVESGGGLVQAGGSLRLSCAASGGTFSSYAMGWFRQAPGKEREFVAATTRGGGRTMYAVSTEGRFTCSRDNAKNTVYLLMNRVKPEDTAVYYCAARTSYYSGTYYPASSDFDIWGQGTQVTVSS
Result string: -3.24
